Data provenance: the Immune Epitope Database (IEDB)

target: HLA-A*24:03; assay: IEDB peptide-MHC binding, purified MHC/direct/fluorescence; filed as Kd, often an IC50 or EC50 that approximates it; bounds were set here for any values at or beyond the usual limits of such assays; conditions: source organism: Salmonella enterica subsp. enterica serovar Typhimurium str. LT2
MEASUREMENT LABEL: Kd

Note Kd for the sequence shown: FTGEYLLRL
≥ 20 µM

---

target: HLA-A*02:01; experiment: IEDB peptide-MHC binding, purified MHC/direct/fluorescence; filed as Kd, often an IC50 or EC50 that approximates it; bounds were set here for any values at or beyond the usual limits of such assays; conditions: source organism: Amur virus
MEASUREMENT LABEL: Kd
Respond with the figure and its unit, in that order.

Note Kd for the sequence shown: TLTRGQNTV
39.6 nM
